target: HiBit-BRG1 fusion protein (Homo sapiens); construct: expressed in transfected cells; experiment: HiBiT-BRG1 cell-based degradation assay (Nano-Glo HiBiT Lytic Detection, 24 h); details: HeLa cells expressing HiBit-BRG1 and LgBit, read-out: BRG1 HiBit Degradation IC50
Sequence (P51532 whole entry, the tested form may be a part): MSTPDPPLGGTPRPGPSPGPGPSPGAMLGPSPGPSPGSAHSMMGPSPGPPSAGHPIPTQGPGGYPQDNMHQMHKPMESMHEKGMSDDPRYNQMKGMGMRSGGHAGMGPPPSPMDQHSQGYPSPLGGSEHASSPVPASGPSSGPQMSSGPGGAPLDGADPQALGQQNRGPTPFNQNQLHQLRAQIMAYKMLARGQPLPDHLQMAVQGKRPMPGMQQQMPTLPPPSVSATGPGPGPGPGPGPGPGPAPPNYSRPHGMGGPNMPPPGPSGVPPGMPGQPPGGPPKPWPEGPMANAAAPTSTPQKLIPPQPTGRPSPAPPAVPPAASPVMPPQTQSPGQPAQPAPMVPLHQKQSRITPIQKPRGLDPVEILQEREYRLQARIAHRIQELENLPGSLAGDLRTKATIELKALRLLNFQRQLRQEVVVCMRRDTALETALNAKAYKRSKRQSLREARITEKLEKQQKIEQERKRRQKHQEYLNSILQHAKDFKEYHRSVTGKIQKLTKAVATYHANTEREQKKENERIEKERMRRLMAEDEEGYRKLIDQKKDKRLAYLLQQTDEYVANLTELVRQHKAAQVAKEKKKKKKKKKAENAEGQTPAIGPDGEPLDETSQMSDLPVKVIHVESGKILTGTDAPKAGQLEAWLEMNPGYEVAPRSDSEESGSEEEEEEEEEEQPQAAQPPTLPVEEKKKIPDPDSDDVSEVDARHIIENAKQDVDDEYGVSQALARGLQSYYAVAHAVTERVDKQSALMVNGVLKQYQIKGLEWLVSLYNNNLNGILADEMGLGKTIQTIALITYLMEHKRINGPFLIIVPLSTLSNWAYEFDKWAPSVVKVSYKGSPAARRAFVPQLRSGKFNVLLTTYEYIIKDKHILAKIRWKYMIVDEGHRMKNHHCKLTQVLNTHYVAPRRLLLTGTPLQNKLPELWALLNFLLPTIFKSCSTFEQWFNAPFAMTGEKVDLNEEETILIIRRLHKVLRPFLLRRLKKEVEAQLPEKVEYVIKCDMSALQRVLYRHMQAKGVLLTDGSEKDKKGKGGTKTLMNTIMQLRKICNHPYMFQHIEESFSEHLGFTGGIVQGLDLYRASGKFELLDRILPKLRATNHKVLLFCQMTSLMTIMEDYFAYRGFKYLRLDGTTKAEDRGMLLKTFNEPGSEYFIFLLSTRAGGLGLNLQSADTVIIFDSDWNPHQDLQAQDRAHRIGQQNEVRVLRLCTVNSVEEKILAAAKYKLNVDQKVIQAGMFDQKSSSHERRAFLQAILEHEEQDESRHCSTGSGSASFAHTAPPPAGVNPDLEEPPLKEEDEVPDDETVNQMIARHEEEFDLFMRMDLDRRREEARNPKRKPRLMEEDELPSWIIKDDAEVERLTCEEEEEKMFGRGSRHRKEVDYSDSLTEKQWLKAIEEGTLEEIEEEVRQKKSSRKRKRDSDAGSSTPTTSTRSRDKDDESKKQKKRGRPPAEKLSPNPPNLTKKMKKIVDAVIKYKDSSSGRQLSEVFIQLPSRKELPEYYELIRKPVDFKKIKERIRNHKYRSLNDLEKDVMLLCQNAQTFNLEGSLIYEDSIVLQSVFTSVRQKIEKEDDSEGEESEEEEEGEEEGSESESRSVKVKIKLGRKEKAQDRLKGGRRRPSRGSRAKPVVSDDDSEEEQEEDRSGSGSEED
Measured DC50 of individual entries

CS(=O)(=O)n1ccc(C(=O)N[C@@H](COCc2ccc(C(=O)NCCOC3CN(c4ccc5c(c4)C(=O)N(C4CCC(=O)NC4=O)C5=O)C3)cc2)C(=O)Nc2nc(-c3ccccc3)cs2)c1 (some centres unmarked)	100 to 1000 nM
CC(C)(C(=O)NCCCCCCCCNC(=O)COc1cccc2c1C(=O)N(C1CCC(=O)NC1=O)C2=O)n1ccc(-c2cccc(-c3csc(NC(=O)CNC(=O)c4ccn(S(C)(=O)=O)c4)n3)c2)n1 (centres unmarked)	100 to 1000 nM
CS(=O)(=O)n1ccc(C(=O)N[C@@H](COCCCC(=O)NCCCCCNc2ccc3c(c2)C(=O)N(C2CCC(=O)NC2=O)C3=O)C(=O)Nc2nc(-c3ccccc3)cs2)c1 (some centres unmarked)	> 10000 nM
CS(=O)(=O)n1ccc(C(=O)N[C@@H](COCc2ccc(CNC(=O)CCCCOc3cccc4c3C(=O)N(C3CCC(=O)NC3=O)C4=O)cc2)C(=O)Nc2nc(-c3ccccc3)cs2)c1 (some centres unmarked)	> 10000 nM

Turning now to a further record.
Task: Lookup: DC50 / HiBit-BRG1 fusion protein (Homo sapiens) / "Cc1ncsc1-c1ccc(CNC(=O)[C@@H]2C[C@@H](O)CN2C(=O)[C@@H](NC(=O)CCC(=O)NCc2cccc(-c3cccc(-c4csc(NC(=O)CNC(=O)c5ccn(S(C)(=O)=O)c5)n4)c3)c2)C(C)(C)C)cc1"
Result: > 10000 nM

###

Measured DC50 of individual entries
target: HiBit-BRG1 fusion protein (Homo sapiens); construct: expressed in transfected cells; assay: HiBiT-BRG1 cell-based degradation assay (Nano-Glo HiBiT Lytic Detection, 24 h); settings: HeLa cells expressing HiBit-BRG1 and LgBit, read-out: BRG1 HiBit Degradation IC50

Cc1cc(C(=O)NCC(=O)Nc2nc(-c3cccc(-c4ccnc(N(C)CC(=O)NCCCCCCCCNC(=O)COc5cccc6c5C(=O)N(C5CCC(=O)NC5=O)C6=O)c4)c3)cs2)cn1S(C)(=O)=O (centres unmarked)	> 10 µM

Task: What value of DC50 has been recorded for this entry: CN(CC(=O)N1CC(COc2cccc3c2C(=O)N(C2CCC(=O)NC2=O)C3=O)C1)c1cc(-c2cccc(-c3csc(NC(=O)CNC(=O)c4ccn(S(C)(=O)=O)c4)n3)c2)ccn1 (centres unmarked)
Result: > 10 µM

Task: What value of DC50 has been recorded for this entry: CN(CC(=O)NCCOCCOCCNc1cccc2c1C(=O)N(C1CCC(=O)NC1=O)C2=O)c1cc(-c2cccc(-c3csc(NC(=O)CNC(=O)c4ccn(S(C)(=O)=O)c4)n3)c2)ccn1 (centres unmarked)
Result: > 10 µM

Task: What value of DC50 has been recorded for this entry: CS(=O)(=O)n1ccc(C(=O)NCC(=O)Nc2nc(-c3cccc(-c4ccnc(N5CCN(C(=O)CCOCCOCCNc6cccc7c6C(=O)N(C6CCC(=O)NC6=O)C7=O)CC5)c4)c3)cs2)c1 (centres unmarked)
Result: 0.1 to 1 µM

Task: What value of DC50 has been recorded for this entry: CS(=O)(=O)n1ccc(C(=O)N[C@@H](COCc2ccc(C(=O)N3CCN(CC4CN(c5ccc6c(c5)C(=O)N(C5CCC(=O)NC5=O)C6=O)C4)CC3)cc2)C(=O)Nc2nc(-c3ccccc3)cs2)c1.O=CO (some centres unmarked)
Result: > 10 µM
